# Test system: MDA-MB-231 cells
# Assay notes: Secondary screening (dose-response), MTT assay, MDA-MB-231
# Format: cell-based, human
# Reported conditions: Homo sapiens, MDA-MB-231, 72 h, read-out: IC50 MDA-MB-231
Measurement type: pIC50
Quick note: pIC50 means taking -log10 of the concentration in moles per liter.

Input: Look up and report measured pIC50 for this entry: COc1cc2c(O[C@@H]3OC[C@@H](OC)[C@H](OC)[C@H]3O)c3c(c(-c4ccc5c(c4)OCO5)c2cc1OC)C(=O)OC3
Output: 7.70

----------
# System: MDA-MB-231 cells
# Assay notes: Primary screening, MTT cell viability, MDA-MB-231
# Reported conditions: Homo sapiens, MDA-MB-231, 72 h, read-out: MDA-MB-231 cell viability, %, 50 μM, 72 h, MTT; mean ± SEM
Attribute: viability at 50 µM
Write it as a number; the unit % goes unstated.

{"columns": ["Compound", "Unit info", "viability at 50 µM"],
 "data": [
  ["COc1cccc2c1C(=O)c1c(O)c3c(c(O)c1C2=O)C[C@@](O)(C(=O)CO)C[C@@H]3O[C@H]1C[C@H](N)[C@H](O)[C@H](C)O1 [Doxorubicin, reference compound]", "%", 4.72],
  ["COc1cc2c(O[C@@H]3OC[C@@H](OC)[C@H](OC)[C@H]3O)c3c(c(-c4ccc5c(c4)OCO5)c2cc1OC)C(=O)OC3", "%", 8.85],
  ["CC(=O)c1ccc(O)cc1 [Compound 11, 4-hydroxyacetophenone]", "%", 50.2]
]}

Input: Return value of viability at 50 µM for input C=C[C@@]1(C)C[C@H]2C[C@H](O)[C@]3(O)[C@@H](CCCC3(C)C)[C@]2(C)CC1=O , no commentary.
Output: 56.3

Input: Provide only the value of recorded viability at 50 µM for C[C@H]1C(=O)CC[C@@H]2[C@]1(C)CC[C@H]1[C@@]2(C)CC[C@@]2(C)[C@@H]3CC(C)(C)CC[C@]3(C)CC[C@]12C
Output: 68.1

Input: Please list viability at 50 µM recorded for the compound O=c1cc(-c2ccccc2)oc2cc(O)cc(O)c12
Output: 64.5

Input: Consider the compound O=C1C[C@@H](c2ccccc2)Oc2cc(O)cc(O)c21 and give its recorded viability at 50 µM.
Output: 74.4
